Test system: HIV-1
DETAILS: read-out: IC50, inhibition of HIV-1 replication; FIG. 7E; U1 cells, thapsigargin 4 nM, 48 hours
pIC50: −log10 of the molar value.
PARAMETER MEASURED: pIC50

>>> df
                                  substance  readout_number
0  H-AAVALLPAVLLALLAPEKLGERDDTIPPEYRELLEKKTGV-OH [Calpastat]            7.30

----------
IC50 values for the molecules below.
Tested on: platelets
ASSAY SUMMARY: cells
Assay type: cell-based
DETAILS: spreading on glass; NI=no inhibition; read-out: IC50, inhibition of platelet spreading
Peptide text beside a SMILES is read from it. * marks the point of attachment. Cbz = O=C(OCc1ccccc1)*
PARAMETER MEASURED: IC50 (µM)

>>> print(df.to_string())
                                   molecule  assayed_system  sign_qualifier  readout_number
0  CC(C)[C@H](NC(=O)OCc1ccccc1)C(=O)N[C@H](C=O)Cc1ccccc1 [MDL] (Cbz-Val-Phe-aldehyde)       platelets               =             200
1  CCOC(=O)[C@H]1O[C@@H]1C(=O)N[C@@H](CC(C)C)C(=O)NCCC(C)C [E64d]       platelets               >             250

----------
ASSAYED SYSTEM: μ-calpain (Sus scrofa)
Construct: pure p-calpain (porcine erythrocyte) was obtained from Chemicon; purchased Chemicon; host or cells: porcine erythrocyte
Sequence (P35750 whole entry): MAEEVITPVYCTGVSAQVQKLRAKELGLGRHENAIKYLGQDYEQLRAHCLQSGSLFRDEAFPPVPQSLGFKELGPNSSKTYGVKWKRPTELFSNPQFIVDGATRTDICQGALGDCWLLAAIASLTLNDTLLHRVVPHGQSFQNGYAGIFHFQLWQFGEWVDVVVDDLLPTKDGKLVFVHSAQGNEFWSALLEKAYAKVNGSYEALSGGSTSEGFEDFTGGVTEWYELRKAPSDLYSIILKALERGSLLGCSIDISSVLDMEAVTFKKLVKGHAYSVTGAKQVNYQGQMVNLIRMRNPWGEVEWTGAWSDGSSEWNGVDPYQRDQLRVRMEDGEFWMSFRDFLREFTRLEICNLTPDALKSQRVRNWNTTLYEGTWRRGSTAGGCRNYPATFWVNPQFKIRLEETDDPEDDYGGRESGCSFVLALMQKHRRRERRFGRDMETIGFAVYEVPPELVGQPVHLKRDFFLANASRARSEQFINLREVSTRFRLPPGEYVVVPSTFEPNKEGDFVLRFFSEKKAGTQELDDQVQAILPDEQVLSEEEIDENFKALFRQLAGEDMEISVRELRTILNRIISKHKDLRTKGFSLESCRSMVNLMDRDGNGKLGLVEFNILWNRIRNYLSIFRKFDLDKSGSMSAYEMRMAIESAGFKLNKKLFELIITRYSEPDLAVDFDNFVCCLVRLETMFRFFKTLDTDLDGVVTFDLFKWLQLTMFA
Sequence (P04574 whole entry partner): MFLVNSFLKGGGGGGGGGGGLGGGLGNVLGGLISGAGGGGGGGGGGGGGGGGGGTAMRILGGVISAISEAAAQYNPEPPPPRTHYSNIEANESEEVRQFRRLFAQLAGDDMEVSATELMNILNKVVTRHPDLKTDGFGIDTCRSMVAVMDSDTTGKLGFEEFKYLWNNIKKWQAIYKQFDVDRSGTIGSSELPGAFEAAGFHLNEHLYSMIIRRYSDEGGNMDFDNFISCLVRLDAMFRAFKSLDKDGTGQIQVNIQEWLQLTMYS
ASSAY SUMMARY: Fluorometric calpain assay, suc-LLVY-AMC substrate
Assay type: biochemical, porcine
DETAILS: 70 nM enzyme, 37° C.; read-out: IC50, μ-calpain cleavage of suc-LLVY-AMC
PARAMETER MEASURED: IC50

                                  substance  parameter_measured  result
0  H-AAVALLPAVLLALLAPEKLGERDDTIPPEYRELLEKKTGV-OH [Calpastat]                IC50   50 nM

----------
IC50 values for the molecules below.
System: gel filtered platelets
ASSAY SUMMARY: Thrombin-induced platelet aggregation (aggregometer)
Format: cell-based, human
DETAILS: initial rate during first 15 seconds; NI=no inhibition; peptidyl inhibitors 10 min pre-incubation; read-out: IC50, initial rate of thrombin-induced platelet aggregation
Peptide text beside a SMILES is read from it. * marks the point of attachment. Cbz = O=C(OCc1ccccc1)*
PARAMETER MEASURED: IC50 (µM)

>>> df
                                   molecule  parameter_measured  measure_unit  readout_number
0  CCOC(=O)[C@H]1O[C@@H]1C(=O)N[C@@H](CC(C)C)C(=O)NCCC(C)C [E64d]                IC50            µM             340
1  CC(C)[C@H](NC(=O)OCc1ccccc1)C(=O)N[C@H](C=O)Cc1ccccc1 [MDL] (Cbz-Val-Phe-aldehyde)                IC50            µM             240

----------
Test system: platelets
ASSAY SUMMARY: cells
Type: cell-based
DETAILS: Platelet; spreading on glass; NI=no inhibition; read-out: IC50, inhibition of platelet spreading
pIC50: −log10 of the molar value.
PARAMETER MEASURED: pIC50

>>> print(df.to_string())
                            chemical_string  readout_number
0  CCCC[C@@H](C=O)NC(=O)[C@H](CC(C)C)NC(=O)OCc1ccccc1            3.70

----------
System: platelets
ASSAY SUMMARY: cells
DETAILS: Homo sapiens, Platelet, read-out: IC50 / half-maximal inhibition of P-selectin surface expression
PARAMETER MEASURED: IC50

>>> print(df.to_string())
                            chemical_string  parameter_measured         result
0  CCCC[C@@H](C=O)NC(=O)[C@H](CC(C)C)NC(=O)OCc1ccccc1                IC50  200 to 300 µM
